Hey, just so you know, these numbers are from patent US11999727B2.

Each entry below lists one item and its recorded pIC50 value.
Target: PRMT5 (Homo sapiens)
Construct: purchased Viva (custom protein)
Sequence (O14744 whole entry): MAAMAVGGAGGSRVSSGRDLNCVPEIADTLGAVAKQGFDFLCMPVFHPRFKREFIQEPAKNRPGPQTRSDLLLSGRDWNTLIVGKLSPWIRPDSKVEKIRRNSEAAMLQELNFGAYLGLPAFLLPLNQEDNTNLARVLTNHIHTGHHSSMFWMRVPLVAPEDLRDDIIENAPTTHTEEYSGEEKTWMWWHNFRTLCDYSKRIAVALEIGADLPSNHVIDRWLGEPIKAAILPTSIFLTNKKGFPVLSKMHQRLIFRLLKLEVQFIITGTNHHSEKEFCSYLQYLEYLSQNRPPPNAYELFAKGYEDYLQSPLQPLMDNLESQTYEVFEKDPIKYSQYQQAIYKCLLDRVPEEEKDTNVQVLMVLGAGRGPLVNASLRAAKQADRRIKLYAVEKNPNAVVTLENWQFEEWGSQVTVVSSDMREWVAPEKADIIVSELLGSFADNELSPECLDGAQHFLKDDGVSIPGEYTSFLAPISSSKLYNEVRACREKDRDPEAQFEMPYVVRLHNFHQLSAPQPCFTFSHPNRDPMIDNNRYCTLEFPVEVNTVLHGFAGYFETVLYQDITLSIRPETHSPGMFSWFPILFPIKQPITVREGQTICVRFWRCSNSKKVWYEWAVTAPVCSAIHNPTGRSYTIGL
Sequence (Q9BQA1 whole entry partner): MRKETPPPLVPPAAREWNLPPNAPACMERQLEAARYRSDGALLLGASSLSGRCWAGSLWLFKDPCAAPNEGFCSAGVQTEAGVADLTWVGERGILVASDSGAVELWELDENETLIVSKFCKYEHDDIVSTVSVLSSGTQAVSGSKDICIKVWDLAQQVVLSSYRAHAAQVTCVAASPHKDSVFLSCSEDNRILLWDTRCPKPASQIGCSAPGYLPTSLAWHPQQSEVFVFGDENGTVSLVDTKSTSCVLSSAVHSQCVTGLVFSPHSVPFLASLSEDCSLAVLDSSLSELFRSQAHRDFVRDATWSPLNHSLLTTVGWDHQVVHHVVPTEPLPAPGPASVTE
Assay: PRMT5 biochemical IC50 assay with MTA as cofactor
Conditions: PRMT5, MTA as cofactor; read-out: MTA IC50
pIC50: −log10 of the molar value.

>  <compound>
CC(=O)N[C@H]1C[C@H]([C@H]2CC[C@H](C)CN2C(=O)C(=O)Nc2cnc(N)c(C)c2)C1 (single isomer, unassigned)

>  <propertyLabel>
pIC50

>  <assayValue>
< 6.30

$$$$
>  <compound>
CCc1cc(NC(=O)C(=O)N2C[C@@H](C)CC[C@@H]2c2ccc3sc(CCN(C)C4COC4)nc3c2)cnc1N

>  <propertyLabel>
pIC50

>  <assayValue>
> 7.30

$$$$
>  <compound>
C[C@@H]1CC[C@@H](c2ccc3nncn3c2)N(C(=O)C(=O)Nc2cncc(C(N)=O)c2)C1 (racemic)

>  <propertyLabel>
pIC50

>  <assayValue>
6.30 to 7.30

$$$$
>  <compound>
C[C@H]1CC[C@H](c2ccc3c(c2)C[C@H](C)O3)N(C(=O)C(=O)Nc2cncc(C(N)=O)c2)C1 (single isomer, unassigned)

>  <propertyLabel>
pIC50

>  <assayValue>
< 6.30

$$$$

Bench note, PRMT5 (Homo sapiens): entry Cc1cc(NC(=O)C(=O)N2C[C@@H](C)CC[C@@H]2c2ccc3c(c2)CCC(=O)N3)cnc1C (single isomer, unassigned) , its pIC50 = < 6.30

Simply: Cc1cc(NC(=O)C(=O)N2C[C@H](C)CC[C@H]2c2cccnc2)cnc1N (racemic) [Compound 146] , PRMT5 (Homo sapiens), pIC50 = > 7.30

Per the reported PRMT5 (Homo sapiens) data, Cc1cc(NC(=O)C(=O)N2CCCCC2c2cccnc2)cnc1N (stereo not shown) has pIC50 of 6.30 to 7.30
